tested on: MS2 coat protein; assay: apparent KD of MS2 coat protein; designed switch direction (-1 OFF switch, 1 ON switch): -1; higher = weaker reporter binding; conditions: input ligand: FMN 200 uM

Sequence record: GCUGGUCGAGGAUAUGCAAUCGUGCUUCGGCACGUAAGGUCACAUGAGGAUCACCCAUGUAGAAGGCGACCAGC [E2/4-A1] (Eterna round: R97, puzzle: Exclusion 2)
Study system: MS2 coat protein
apparent KD of MS2 coat protein [nM]: 32.5
//
Sequence record: CUCGCAUUAGGAUAUACAUGAGGAUCACCCAUGUAUAAACCCAGGGUCAACGCCAUAUGUAGAAGGAGUAGCGA [Eternabot (L1) Solution 59] (Eterna round: R97, puzzle: Exclusion 3)
Study system: MS2 coat protein
apparent KD of MS2 coat protein [nM]: 22.2
//
Sequence record: CCUCGGUCAGGAUAUGGGCCAUGCGAUGAUGAAGCCUGGCGCCAGAAGGGACAUGAGGAUCACCCAUGUCCGUA [Eternabot (Original) Solution 37] (Eterna round: R97, puzzle: Exclusion 4)
Study system: MS2 coat protein
apparent KD of MS2 coat protein [nM]: 71.3
//
Sequence record: UUUAAUUUUUUUUUUUUACAAGCUUUUUGCUCGUCUUAUACAUGAGGAUCACCCAUGUGGGUGGAAAAUAAAUUAUC [JMF 92] (Eterna round: R96, puzzle: Sensor v3, turn-off variant 2)
Study system: MS2 coat protein
apparent KD of MS2 coat protein [nM]: 583
//
Sequence record: CAGCCCUGAGGAUAUCCCUCCUUGUACAUGAGGAUCACCCAUGUUCUCCUCUGGGCUUUGGGAGAAGGCAGAUCUC [Megrez-6.9] (Eterna round: R97, puzzle: Exclusion 5)
Study system: MS2 coat protein
apparent KD of MS2 coat protein [nM]: 41.1
//
Sequence record: ACAAGAAUAGGAUAUACAACAUGCCAGCUUCUUUACAACGCACAUGAGGAUCACCCAUGUAGAAGGGUUCUCUG [Exclusion-2-#14] (Eterna round: R97, puzzle: Exclusion 2)
Study system: MS2 coat protein
apparent KD of MS2 coat protein [nM]: 360
//
Sequence record: UUAAUUAAUUGCGCAAGAUCACAUGAGGAUCACCCAUGUAUAUAGGAUAUCAGCUCGUGUAGAGCUGAGAAGGAUAUACAGCGC [ExNG3/3-A3] (Eterna round: R96, puzzle: Exclusion NG 3)
Study system: MS2 coat protein
apparent KD of MS2 coat protein [nM]: 886
//
Sequence record: CAAUAGCGAGGAUAUACAUGAGGAUCACCCAUGUGAUCCUUAGGCUGUUGAAGCCUAUGUAGAAGGCGCAAAUU [jl-ex3.4.57 ViennaUCT mod] (Eterna round: R97, puzzle: Exclusion 3)
Study system: MS2 coat protein
apparent KD of MS2 coat protein [nM]: 198
//
Sequence record: CCGGAAAGGAAGGAUAUGCUUGACGAAAGUCAAGCAGAAGGUCCUACAUGAGGAUCACCCAUGUGGCCUCCCGG [Mat - Exclusion 6 - Eli Mod - D48] (Eterna round: R97, puzzle: Exclusion 6)
Study system: MS2 coat protein
apparent KD of MS2 coat protein [nM]: 737
//
Sequence record: CACAGGAGACGGAGAUCCAACAUGAGGAUCACCCAUGUCUCAAAAGCUUUUUGCUUGUCUUAUCCUCCUCUCUUGAC [Mat - Sensor, turn-off var - Eli Mod - D60] (Eterna round: R97, puzzle: Sensor, turn-off variant 1)
Study system: MS2 coat protein
apparent KD of MS2 coat protein [nM]: 26
